All values here come from PubChem BioAssay AID214.

System: B6C3F1 mice, colon carcinoma 38 s.c., T/C
Assay: NCI In Vivo Anticancer Drug Screen. Data for tumor model Colon Carcinoma 38 (subcutaneous) in B6C3F1 mice
Details: endpoint: median tumor weight (est.); dose: 400.0 mg/kg/injection; schedule: Q07DX002 (ip); vehicle: Klucel (hydroxypropylcellulose) (HPC); higher = larger tumour
Method: The antitumor activity of compounds was measured in mice bearing transplantable tumors. Survival or tumor size were measured and the results are expressed as the measurement made in the treated group (T) divided by the measurement made in the vehicle treated control group (C). The tumor model used in this assay is Colon Carcinoma 38 (subcutaneous) in B6C3F1 mice
Records with an inconclusive call do not appear.
OBSERVABLE: T/C

* O=C(O)c1cc(Cc2ccc(O)c(C(=O)O)c2)ccc1O (tested in a mixture with another compound) | 63 % of control
* CC(CN1CC(=O)NC(=O)C1)N1CC(=O)NC(=O)C1 (centres undefined) | 2 % of control
* Cc1ccc(NCCN(C)C)c2c(=O)c3cc(O)ccc3sc12 | 48 % of control
* Oc1c(Cl)cc(Cl)cc1C=NCCSc1ccc(Cl)cc1 | 63 % of control
* CN(C)c1ccc2c(SCC(=O)OCC(=O)[C@@]3(O)CC[C@H]4[C@@H]5CCC6=CC(=O)C=C[C@]6(C)[C@H]5C(=O)C[C@@]43C)c3ccc(N(C)C)cc3nc2c1 | 82 % of control

Can you share its T/C? I mean this molecule: O=C1CC2(C(=O)N1CN1CCOCC1)c1ccccc1-c1ccccc12
79 % of control

Would you mind telling me what T/C value was observed for CSc1ncc2ncn(C3OC(CO)C(O)C3O)c2n1 (centres undefined) ?
120 % of control

So what's the measured T/C for this one? CCN(CC)CCOC(=O)Cc1cc(OC)cc2c(=O)cc(-c3ccccc3)oc12
73 % of control

Can you share its T/C? I mean this molecule: Cn1cc(C2NC(=O)c3ccccc3N2)c2ccccc21 (centres undefined)
151 % of control

Please give the measured T/C for this molecule: COC(=O)Nc1nc2ccc(SC)cc2c(=O)[nH]1
109 % of control

Value lookup for T/C; key = COC1C(CO)OC(n2cnc3c(=S)nc(N)[nH]c32)C1O (centres undefined)
51 % of control

Fill blank: measured T/C of the molecule Cc1cc(=O)c2cccc(CC(=O)O)c2o1 is ____.
117 % of control

Which measured T/C value corresponds to CCNC(=O)[B-][N+](C)(C)C ?
81 % of control

Query: T/C; subject: COc1nc(C(Cl)(Cl)Cl)c(Cl)c(OC)c1Cl
47 % of control

----------
Test system: B6C3F1 mice, colon carcinoma 38 s.c., T/C
Test: NCI In Vivo Anticancer Drug Screen. Data for tumor model Colon Carcinoma 38 (subcutaneous) in B6C3F1 mice
Conditions: endpoint: median tumor weight (est.); dose: 50.0 mg/kg/injection; schedule: Q07DX002 (ip); vehicle: saline with Tween-80; higher = larger tumour
Records with an inconclusive call do not appear.
OBSERVABLE: T/C

- Nc1nc(N)c2c(ccc3c2ccn3Cc2cccc([N+](=O)[O-])c2)n1: 12 % of control
- ClCc1ccc2ccccc2n1: 93 % of control
- CCCCCC1c2cc(O)ccc2OC1N1CCOCC1 (stereo not drawn): 74 % of control
- O=[N+]([O-])c1ccc(N(CCO)CCO)c2c1no[n+]2[O-]: 63 % of control
- O=[N+]([O-])c1ccc(N2CCOCC2)c2c1no[n+]2[O-]: 165 % of control

I have this compound here, Nc1nc(N)c2cc(S(=O)(=O)c3ccccc3)ccc2n1 , and I need its recorded T/C.
62 % of control

Which T/C reading was recorded for the compound O=C(C/C(=N\C(=S)Nc1cc(C(F)(F)F)ccc1Cl)NO)N1CCCC1 ?
85 % of control

Look at this compound and give its reported T/C. CCCCCCCCCCCCCCCCCC(=O)Nc1ccn(C2OC(CO)C(O)C2O)c(=O)n1 (stereo not drawn)
49 % of control

Looking for the measured T/C of CCC(NC(N)=O)C(CC)NC(N)=O (stereo not drawn) , can you help?
88 % of control

Query: T/C; subject: N=c1c(C(=O)OCc2ccccc2)ncc(CCl)n1O
76 % of control
